- Test system: Vero
- ASSAY OVERVIEW: Concentration required to cause a microscopically detectable alteration in cell morphology in vero cell cultures.
- Assay type: functional
- EXPERIMENTAL CONDITIONS: Chlorocebus sabaeus, read-out: Min cytotoxic concentration

[
  {
    "COMPOUND": "CC(O)c1cn(C2O[C@H](CO)[C@@H](O)[C@H]2O)c2ncnc(N)c12 (stereo not given in full)",
    "VALUE UNITS": "µg/mL",
    "OPERATOR SYMBOL": "=",
    "MCC": 40
  },
  {
    "COMPOUND": "Nc1ncnc2c1c(I)cn2[C@@H]1O[C@H](CO)[C@@H](O)[C@H]1O",
    "VALUE UNITS": "µg/mL",
    "OPERATOR SYMBOL": "=",
    "MCC": 1
  },
  {
    "COMPOUND": "C/C=C/Cc1cn(C2O[C@H](CO)[C@@H](O)[C@H]2O)c2ncnc(N)c12 (stereo not given in full)",
    "VALUE UNITS": "µg/mL",
    "OPERATOR SYMBOL": "=",
    "MCC": 100
  },
  {
    "COMPOUND": "Nc1ncnc2c1c(/C=C/Br)cn2C1O[C@H](CO)[C@@H](O)[C@H]1O (stereo not given in full)",
    "VALUE UNITS": "µg/mL",
    "OPERATOR SYMBOL": "=",
    "MCC": 4
  },
  {
    "COMPOUND": "NC(=O)c1ncn([C@@H]2O[C@H](CO)[C@@H](O)[C@H]2O)n1",
    "VALUE UNITS": "µg/mL",
    "OPERATOR SYMBOL": ">",
    "MCC": 400
  }
]

* * *

- System: Vero
- ASSAY OVERVIEW: Concentration required to cause a microscopically detectable alteration in cell morphology in vero cell cultures.
- Type: functional
- EXPERIMENTAL CONDITIONS: Chlorocebus sabaeus, read-out: Min cytotoxic concentration
VALUE TYPE: MCC (µg/mL)

[
  {
    "COMPOUND": "Nc1ncnc2c1c(Br)c(Br)n2C1O[C@H](CO)[C@@H](O)[C@H]1O (stereo partly drawn)",
    "VALUE TYPE": "MCC",
    "RESULT VALUE": 40
  },
  {
    "COMPOUND": "COC(C)c1cn(C2O[C@H](CO)[C@@H](O)[C@H]2O)c2ncnc(N)c12 (stereo partly drawn)",
    "VALUE TYPE": "MCC",
    "RESULT VALUE": 100
  },
  {
    "COMPOUND": "Nc1ncnc2c1ccn2[C@@H]1O[C@H](CO)[C@@H](O)[C@H]1O",
    "VALUE TYPE": "MCC",
    "RESULT VALUE": 0.4
  }
]

* * *

- System: Human alphaherpesvirus 2
- ASSAY OVERVIEW: Concentration required to reduce HSV-2 (G) induced cytopathogenicity by 50% in primary rabbit kidney cell cultures.
- Type: functional
VALUE TYPE: MIC

[
  {
    "MOLECULE": "Nc1ncnc2c1c(/C=C/Br)cn2C1O[C@H](CO)[C@@H](O)[C@H]1O (stereo partly drawn)",
    "RESULT VALUE": "> 1 µg/mL"
  },
  {
    "MOLECULE": "Nc1ncnc2c1c(Br)cn2[C@@H]1O[C@H](CO)[C@@H](O)[C@H]1O",
    "RESULT VALUE": "> 1 µg/mL"
  },
  {
    "MOLECULE": "CC(O)c1cn(C2O[C@H](CO)[C@@H](O)[C@H]2O)c2ncnc(N)c12 (stereo partly drawn)",
    "RESULT VALUE": "7 µg/mL"
  },
  {
    "MOLECULE": "Nc1ncnc2c1c(I)cn2[C@@H]1O[C@H](CO)[C@@H](O)[C@H]1O [IODOTUBERCIDIN]",
    "RESULT VALUE": "> 1 µg/mL"
  },
  {
    "MOLECULE": "C/C=C/Cc1cn(C2O[C@H](CO)[C@@H](O)[C@H]2O)c2ncnc(N)c12 (stereo partly drawn)",
    "RESULT VALUE": "150 µg/mL"
  },
  {
    "MOLECULE": "Nc1ncnc2c1cc(Br)n2C1O[C@H](CO)[C@@H](O)[C@H]1O (stereo partly drawn)",
    "RESULT VALUE": "> 400 µg/mL"
  },
  {
    "MOLECULE": "NC(=O)c1ncn([C@@H]2O[C@H](CO)[C@@H](O)[C@H]2O)n1 [RIBAVIRIN]",
    "RESULT VALUE": "> 400 µg/mL"
  },
  {
    "MOLECULE": "Nc1nccc2c1ncn2[C@@H]1C[C@H](CO)[C@H](O)C1O (stereo partly drawn)",
    "RESULT VALUE": "300 µg/mL"
  },
  {
    "MOLECULE": "N#C/C=C/c1cn(C2O[C@H](CO)[C@@H](O)[C@H]2O)c2ncnc(N)c12 (stereo partly drawn)",
    "RESULT VALUE": "20 µg/mL"
  },
  {
    "MOLECULE": "COC(C)c1cn(C2O[C@H](CO)[C@@H](O)[C@H]2O)c2ncnc(N)c12 (stereo partly drawn)",
    "RESULT VALUE": "> 40 µg/mL"
  },
  {
    "MOLECULE": "Nc1ncnc2c1c(Br)c(Br)n2C1O[C@H](CO)[C@@H](O)[C@H]1O (stereo partly drawn)",
    "RESULT VALUE": "> 40 µg/mL"
  },
  {
    "MOLECULE": "N#Cc1cn([C@@H]2O[C@H](CO)[C@@H](O)[C@H]2O)c2ncnc(N)c12 [TOYOCAMYCIN]",
    "RESULT VALUE": "0.07 µg/mL"
  },
  {
    "MOLECULE": "NC(=O)c1cn([C@@H]2O[C@H](CO)[C@@H](O)[C@H]2O)c2ncnc(N)c12 [SANGIVAMYCIN]",
    "RESULT VALUE": "0.07 µg/mL"
  },
  {
    "MOLECULE": "Nc1ncnc2c1ccn2[C@@H]1O[C@H](CO)[C@@H](O)[C@H]1O [TUBERCIDIN]",
    "RESULT VALUE": "0.2 µg/mL"
  },
  {
    "MOLECULE": "Nc1ncnc2c1c(CCCO)cn2C1O[C@H](CO)[C@@H](O)[C@H]1O (stereo partly drawn)",
    "RESULT VALUE": "> 10 µg/mL"
  },
  {
    "MOLECULE": "CCCCc1cn(C2O[C@H](CO)[C@@H](O)[C@H]2O)c2ncnc(N)c12 (stereo partly drawn)",
    "RESULT VALUE": "> 40 µg/mL"
  },
  {
    "MOLECULE": "Nc1ncnc2c1c(Cl)c(Cl)n2C1O[C@H](CO)[C@@H](O)[C@H]1O (stereo partly drawn)",
    "RESULT VALUE": "> 40 µg/mL"
  },
  {
    "MOLECULE": "Nc1ncnc2c1c(Cl)cn2[C@@H]1O[C@H](CO)[C@@H](O)[C@H]1O",
    "RESULT VALUE": "> 1 µg/mL"
  }
]
